Measured values drawn from paper PMC11059001 for this set.

# experimental.system: T1, complement C1q (human, UniProt P02745;P02746;P02747)
# T1 construct: also called human complement C1q; source: bought: Merk (Darmstadt, Germany); copies: 6 + 6 + 6
# T1 sequence (P02745 23-245, chain 1 of 3): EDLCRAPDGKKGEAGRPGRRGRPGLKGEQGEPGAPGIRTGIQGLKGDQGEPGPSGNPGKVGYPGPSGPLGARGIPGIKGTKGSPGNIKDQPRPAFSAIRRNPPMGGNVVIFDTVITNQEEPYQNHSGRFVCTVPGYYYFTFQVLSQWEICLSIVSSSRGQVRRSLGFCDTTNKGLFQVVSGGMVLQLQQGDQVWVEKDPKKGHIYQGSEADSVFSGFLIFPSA
# T1 sequence (P02746 28-253, chain 2 of 3): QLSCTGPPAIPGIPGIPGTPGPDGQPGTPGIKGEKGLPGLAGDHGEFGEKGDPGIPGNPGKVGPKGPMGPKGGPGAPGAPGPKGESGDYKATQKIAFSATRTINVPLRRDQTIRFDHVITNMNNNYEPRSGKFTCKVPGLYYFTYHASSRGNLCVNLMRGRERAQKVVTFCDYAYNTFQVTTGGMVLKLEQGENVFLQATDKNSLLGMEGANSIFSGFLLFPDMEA
# T1 sequence (P02747 29-245, chain 3 of 3): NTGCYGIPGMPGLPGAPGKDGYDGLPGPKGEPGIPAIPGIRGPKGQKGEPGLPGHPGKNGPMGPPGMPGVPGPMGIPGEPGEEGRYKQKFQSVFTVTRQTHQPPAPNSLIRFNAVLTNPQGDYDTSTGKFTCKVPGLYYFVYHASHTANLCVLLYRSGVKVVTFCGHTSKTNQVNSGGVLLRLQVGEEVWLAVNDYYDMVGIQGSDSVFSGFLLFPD
# method.summary: MST; fluorescently labelled C1q (RED-NHS) 40 nM; TsCRT, TsCRT^Δ, mutants or P^TsCRT gradient-diluted; 50 mM Hepes, 150 mM NaCl, 2 mM CaCl2, 0.05% Tween 20, pH 7.4; Monolith NT.115, LED power 20%, MST power 50%
# particulars: both partners purified
experimental.endpoint: Kd

[ask] Endpoint output: Kd of DLEDFNSDTPYRIMFGPDICGPEKR (calreticulin of Trichinella spiralis (TsCRT), residues 122-146; source: synthetic peptide) [C1q-binding peptide P^TsCRT (TsCRT residues 122-146)] . Value?
[reply] 260 nM
